Items are presented alongside their recorded pIC50.
Target: human KDR protein in HEK-293 cells (Homo sapiens (Human), UniProt P35968)
Sequence (P35968 20-1356): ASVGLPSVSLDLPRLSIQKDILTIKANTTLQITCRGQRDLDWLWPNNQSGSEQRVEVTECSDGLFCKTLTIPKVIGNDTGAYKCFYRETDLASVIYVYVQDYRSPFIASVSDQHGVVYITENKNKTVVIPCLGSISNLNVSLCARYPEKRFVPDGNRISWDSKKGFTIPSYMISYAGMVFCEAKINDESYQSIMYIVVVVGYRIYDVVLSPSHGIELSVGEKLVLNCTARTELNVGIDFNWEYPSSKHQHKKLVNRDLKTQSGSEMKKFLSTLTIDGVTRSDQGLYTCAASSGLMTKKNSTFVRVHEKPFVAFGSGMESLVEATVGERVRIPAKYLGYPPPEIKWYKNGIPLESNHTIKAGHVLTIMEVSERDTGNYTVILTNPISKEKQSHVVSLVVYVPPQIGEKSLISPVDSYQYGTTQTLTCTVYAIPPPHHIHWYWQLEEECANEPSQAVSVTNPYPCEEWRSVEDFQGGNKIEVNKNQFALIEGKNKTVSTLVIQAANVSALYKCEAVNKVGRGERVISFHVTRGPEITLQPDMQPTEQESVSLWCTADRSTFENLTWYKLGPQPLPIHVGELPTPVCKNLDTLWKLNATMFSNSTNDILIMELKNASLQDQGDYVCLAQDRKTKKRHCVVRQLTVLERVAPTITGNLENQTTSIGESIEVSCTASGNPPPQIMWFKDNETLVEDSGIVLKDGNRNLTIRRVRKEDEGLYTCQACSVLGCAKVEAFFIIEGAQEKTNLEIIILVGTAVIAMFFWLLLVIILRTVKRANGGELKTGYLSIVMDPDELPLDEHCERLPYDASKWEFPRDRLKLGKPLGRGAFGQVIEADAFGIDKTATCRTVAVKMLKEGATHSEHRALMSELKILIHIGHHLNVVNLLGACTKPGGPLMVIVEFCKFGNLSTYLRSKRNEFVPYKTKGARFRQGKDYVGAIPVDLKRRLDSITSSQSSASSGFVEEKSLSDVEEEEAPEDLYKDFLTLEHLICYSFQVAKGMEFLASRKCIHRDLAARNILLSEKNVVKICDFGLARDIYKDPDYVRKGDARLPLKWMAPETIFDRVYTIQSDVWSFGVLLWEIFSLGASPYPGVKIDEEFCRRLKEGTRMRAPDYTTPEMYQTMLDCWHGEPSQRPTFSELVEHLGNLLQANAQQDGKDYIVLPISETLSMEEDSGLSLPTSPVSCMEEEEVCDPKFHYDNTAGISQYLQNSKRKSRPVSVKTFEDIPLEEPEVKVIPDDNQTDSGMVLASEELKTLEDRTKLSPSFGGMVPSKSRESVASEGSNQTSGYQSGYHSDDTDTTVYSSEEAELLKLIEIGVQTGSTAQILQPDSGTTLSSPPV
Assay: KDR Cell Assay (phospho-KDR in HEK-293 cells expressing inducible KDR)
Assay type: cell-based
Settings: pKDR Cell HEK 10% FBS IC50, HEK-293 cells expressing inducible KDR, VEGF stimulated
pIC50: −log10 of the molar value.

{"RECORD SMILES": "Cc1ncc(-c2cc(-c3ccc(N4CCN(Cc5ccccc5)CC4)nc3)c3c(C#N)cnn3c2)o1", "REPORTED RELATION": "≤", "pIC50": 5.30}
{"RECORD SMILES": "CCCN1CCN(c2ccc(-c3cc(-c4cnn(C)c4)cn4ncc(C#N)c34)cn2)CC1", "REPORTED RELATION": "=", "pIC50": 5.89}
{"RECORD SMILES": "Cn1cc(-c2cc(-c3ccc(N4CCN(CC(F)F)CC4)nc3)c3c(C#N)cnn3c2)cn1", "REPORTED RELATION": "=", "pIC50": 5.82}
{"RECORD SMILES": "Cn1cc(-c2cc(-c3ccc(N4CCC5(CC4)CCN5C(=O)OC(C)(C)C)nc3)c3c(C#N)cnn3c2)cn1", "REPORTED RELATION": "=", "pIC50": 6.55}
{"RECORD SMILES": "Cn1cc(-c2cc(-c3ccc(N4CCC5(CC4)CN(C(=O)C4CCC4)C5)nc3)c3c(C#N)cnn3c2)cn1", "REPORTED RELATION": "=", "pIC50": 6.03}
{"RECORD SMILES": "CC(C)N1CCN(c2ccc(-c3cc(-c4cnn(C)c4)cn4ncc(C#N)c34)cn2)CC1", "REPORTED RELATION": "=", "pIC50": 5.79}
{"RECORD SMILES": "Cc1nn(C(C)C)cc1-c1cc(-c2ccc(N3CCN(Cc4ccccc4)CC3)nc2)c2c(C#N)cnn2c1", "REPORTED RELATION": "=", "pIC50": 5.64}
{"RECORD SMILES": "CCOCCN1CCN(c2ccc(-c3cc(-c4cnn(C)c4)cn4ncc(C#N)c34)cn2)CC1", "REPORTED RELATION": "=", "pIC50": 5.82}

----------
Biological target: N-terminal GST tagged recombinant human RET cytoplasmic domain (aa 658-end), wild type RET kinase (Homo sapiens (Human), UniProt P07949)
Sequence (P07949 658-1114): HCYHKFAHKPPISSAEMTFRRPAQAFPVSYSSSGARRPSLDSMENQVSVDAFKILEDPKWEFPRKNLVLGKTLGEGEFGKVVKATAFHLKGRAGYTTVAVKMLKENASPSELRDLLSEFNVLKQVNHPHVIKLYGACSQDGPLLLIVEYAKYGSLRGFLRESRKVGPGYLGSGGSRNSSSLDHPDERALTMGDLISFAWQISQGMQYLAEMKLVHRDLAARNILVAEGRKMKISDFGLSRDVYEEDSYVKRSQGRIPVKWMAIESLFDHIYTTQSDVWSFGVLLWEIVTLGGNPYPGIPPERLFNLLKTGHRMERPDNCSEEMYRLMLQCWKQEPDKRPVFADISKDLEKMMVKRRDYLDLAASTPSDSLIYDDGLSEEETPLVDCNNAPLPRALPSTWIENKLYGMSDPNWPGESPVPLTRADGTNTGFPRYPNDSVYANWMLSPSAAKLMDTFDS
Experiment: RET Enzyme Assay (HTRF KinEASE-TK), wild type RET
Type: biochemical
Details: wild type RET, 1 mM ATP
Counter-ions that a name gives are not always drawn.
Label yes when IC50 is strictly below 20 nM; otherwise label no.

{"COMPOUND": "CC(C)CN(C)C(=O)C1CCN(c2ccc(-c3cc(-c4cnn(C)c4)cn4ncc(C#N)c34)cn2)CC1", "LABEL CLASS": "no"}
{"COMPOUND": "CCC1(C(=O)NC(C)C)CCN(c2ccc(-c3cc(-c4cnn(C)c4C)cn4ncc(C#N)c34)cn2)CC1", "LABEL CLASS": "no"}
{"COMPOUND": "C[C@@H](CO)Cn1cc(-c2cc(-c3ccc(N4CCN(Cc5ccccc5)CC4)nc3)c3c(C#N)cnn3c2)cn1", "LABEL CLASS": "yes"}
{"COMPOUND": "COCCNC(=O)N1CCN(c2ccc(-c3cc(-c4cnn(C)c4)cn4ncc(C#N)c34)cn2)CC1", "LABEL CLASS": "yes"}
{"COMPOUND": "COc1ccc(CN2CCN(c3ccc(-c4cc(-c5cnn(C)c5)cn5ncc(C#N)c45)cn3)CC2)c(C)n1", "LABEL CLASS": "yes"}
{"COMPOUND": "C[C@H](O)C(=O)N1CCN(c2ccc(-c3cc(-c4cnn(C)c4)cn4ncc(C#N)c34)cn2)CC1", "LABEL CLASS": "no"}
{"COMPOUND": "Cc1cc(-c2cc(-c3cnn(C)c3)cn3ncc(C#N)c23)cnc1N1CCNCC1 [Example 276, dihydrochloride]", "LABEL CLASS": "no"}
{"COMPOUND": "CC(C)NC(=O)[C@H]1CCCN(c2ccc(-c3cc(-c4cnn(C)c4)cn4ncc(C#N)c34)cn2)C1", "LABEL CLASS": "no"}
{"COMPOUND": "CC(C)C(=O)NC1CCN(c2ccc(-c3cc(-c4cnn(C)c4)cn4ncc(C#N)c34)cn2)CC1", "LABEL CLASS": "yes"}
{"COMPOUND": "CC(C)C(O)CN1CCN(c2ccc(-c3cc(-c4cnn(C)c4)cn4ncc(C#N)c34)cn2)CC1 (stereo not drawn)", "LABEL CLASS": "yes"}
{"COMPOUND": "CO[C@@H](C)CN1CCN(c2ccc(-c3cc(-c4cnn(C)c4)cn4ncc(C#N)c34)cn2)CC1", "LABEL CLASS": "no"}
{"COMPOUND": "COC(CNC(=O)C1CCN(c2ccc(-c3cc(-c4cnn(C)c4)cn4ncc(C#N)c34)cn2)CC1)C(F)(F)F (stereo not drawn)", "LABEL CLASS": "yes"}
{"COMPOUND": "CCC1(C(=O)NC(C)C)CCN(c2ccc(-c3cc(-c4cn(C)nc4C)cn4ncc(C#N)c34)cn2)CC1", "LABEL CLASS": "no"}
{"COMPOUND": "CC[C@@H](CO)NC(=O)N1CCN(c2ccc(-c3cc(-c4cnn(C)c4)cn4ncc(C#N)c34)cn2)CC1", "LABEL CLASS": "yes"}
{"COMPOUND": "COC1CCN(c2ccc(-c3cc(-c4cnn(C)c4)cn4ncc(C#N)c34)cn2)CC1", "LABEL CLASS": "yes"}
